Reference for the values: PubChem BioAssay (NCI)

Test system: SR leukemia
Assay: NCI tumour cell line growth inhibition, 48 h
Assignment: determine reported TGI for the given molecules.

Lookup: Could you share what TGI was measured for CCN(CC)CCC(=O)N1CCc2c([nH]c3ccccc23)C1c1cccnc1 (stereo not drawn) , tested on SR leukemia?
Found: > 100 µM

Lookup: Could you share what TGI was measured for `CCn1c(-c2ccccc2)nc2c1C(=O)c1ccccc1C2=O` , tested on SR leukemia?
Found: > 100 µM

Lookup: Could you share what TGI was measured for COc1cc(S(=O)(=O)Nc2ccc(-c3csc(N4C(=O)C(C)SC4c4ccccc4O)n3)cc2)ccc1Cl (stereo not drawn) , tested on SR leukemia?
Found: > 100 µM

---

Tested on: OVCAR-8 ovarian
Test: NCI tumour cell line growth inhibition, 48 h
QUANTITY MEASURED: TGI

Lookup: Reported TGI, compound Cn1c(=O)c2[nH]c(C3CC(=O)CC(c4nc5c([nH]4)c(=O)n(C)c(=O)n5C)N3)nc2n(C)c1=O (stereo not given) : ____
Found: > 100 µM

Lookup: Reported TGI, compound c1ccc2c(c1)CCN1CCc3c([nH]c4ccccc34)C21 (stereo not given) : ____
Found: > 100 µM

Lookup: Reported TGI, compound `CCCN1CN(c2ccccc2)C2(CCN(CCCC(=O)c3ccc(F)cc3)CC2)C1=O` : ____
Found: 32.6 µM

Lookup: Reported TGI, compound `O=C1SC(c2ccccc2)(c2ccccc2)c2ccccc21` : ____
Found: > 100 µM

Lookup: Reported TGI, compound `CCN(CC)CCCNc1nc2ccccc2c2c(=O)c3cc(Cl)ccc3sc12` : ____
Found: 15.7 µM

Lookup: Reported TGI, compound `O=C1/C(=C/c2ccc(Cl)cc2)CN(Cc2cn(CCNc3ccnc4cc(Cl)ccc34)nn2)C/C1=C\c1ccc(Cl)cc1` : ____
Found: 1.43 µM

Lookup: Reported TGI, compound `CCN(CC)c1nc(N(C)C)c2ccc(OC)cc2n1` : ____
Found: > 100 µM

Lookup: Reported TGI, compound O=c1[nH]c(=O)n(C2OC(CO)C(O)C2O)cc1OCCc1ccccc1 (stereo not given) : ____
Found: > 100 µM

Lookup: Reported TGI, compound `COc1cc(-n2cc(-c3ccc(F)cc3)[nH]c2=S)cc(OC)c1OC` : ____
Found: > 100 µM

Lookup: Reported TGI, compound `O=C(Nc1cccc([N+](=O)[O-])c1)c1ccc2ccccc2c1O` : ____
Found: > 100 µM

---

Test system: OVCAR-3 ovarian
Assay: NCI tumour cell line growth inhibition, 48 h
Assignment: determine reported GI50 for the given molecules.

Lookup: Reported GI50, molecule `CCCCCCCCCCCCCCCCOC(=O)c1c(C)[nH]c(/C=C2\N=C(c3ccc[nH]3)C=C2OC)c1C` : ____
Found: 1.67 µM

Lookup: Reported GI50, molecule CCCCCCCCCCCCCC(=O)OC(/C=C/C(C)C)C(O)C(O)C(OC)C(=O)NC1CCCCNC1=O (stereo unspecified) : ____
Found: 6.19 µM

Lookup: Reported GI50, molecule `CCCCCCCCCCCCSC(=NC)NC` : ____
Found: 2 µM

Lookup: Reported GI50, molecule `O=C(Nc1ccc(Cl)cc1)c1ccc([N+](=O)[O-])o1` : ____
Found: 2.92 µM

Lookup: Reported GI50, molecule `COc1ccc(/C(=N\O)c2cc(OC)c(OC)c(OC)c2)c(OC)c1N` : ____
Found: 2.53 µM

Lookup: Reported GI50, molecule `COc1cc2c3c(n(CCCNC(=O)OCC4c5ccccc5-c5ccccc54)c(=O)c2cc1OC)-c1cc2c(cc1C3=O)OCO2` : ____
Found: > 100 µM

---

Test system: HCC-2998 colon
Experiment: NCI tumour cell line growth inhibition, 48 h
QUANTITY MEASURED: TGI

Lookup: Reported TGI, molecule `COc1cc(/C=C/C(=O)C(C(=O)/C=C/c2ccc(OC(=O)CCNc3nnc(C)s3)c(OC)c2)C(=O)CCNc2nnc(C)s2)ccc1OC(=O)CCNc1nnc(C)s1` : ____
Found: 3.2 µM

Lookup: Reported TGI, molecule O=C(O)C(Cc1cnc[nH]1)N=Cc1nc(-c2ccccc2)oc1O (centres undefined) : ____
Found: > 100 µM

Lookup: Reported TGI, molecule `O=C(N1CCC(CN=c2cc3n(-c4ccc(Cl)cc4)c4ccccc4nc-3cc2Nc2ccc(Cl)cc2)CC1)N1CC1` : ____
Found: 1.58 µM

Lookup: Reported TGI, molecule `O=C1/C(=C/c2ccc([N+](=O)[O-])o2)Oc2ccccc21` : ____
Found: 3.94 µM

Lookup: Reported TGI, molecule `O=C(O)/C=C/c1cnc[nH]1` : ____
Found: > 500 µM

Lookup: Reported TGI, molecule `COc1ccc(/C(=N\O)c2cc(OC)c(OC)c(OC)c2)c(OC)c1N` : ____
Found: > 100 µM

Lookup: Reported TGI, molecule `CC1(C)N=C(N)N=C(N)N1c1ccc(OCC(=O)N2CCOCC2)c(Cl)c1` : ____
Found: > 100 µM

Lookup: Reported TGI, molecule COc1ccc(N=Nc2c(C)c(C#N)c(=S)n(C3OC(COC(C)=O)C(OC(C)=O)C(OC(C)=O)C3OC(C)=O)c2-c2ccccc2)cc1 (centres undefined) : ____
Found: > 100 µM

Lookup: Reported TGI, molecule COc1cc(C2c3[nH]c4ccc(F)cc4c3C[C@H]3COC(=O)N23)cc(OC)c1O (some centres undefined) : ____
Found: 28.4 µM

---

Test system: SNB-78 CNS
Experiment: NCI tumour cell line growth inhibition, 48 h
Decide by TGI: equal to or exceeding 50 µM means T, less means F.

Lookup: Answer whether TGI of `CN(C)CC(C)(C)C(/C=C/c1ccccc1)=N\Nc1ccccc1` is greater than or equal to 50 µM.
Found: F

Lookup: Answer whether TGI of `O=C(CC/C(CC(=O)c1ccc(Cl)cc1)=N/O)Nc1ccc(Cl)c(Cl)c1` is greater than or equal to 50 µM.
Found: T

Lookup: Answer whether TGI of COc1ccc(CC2NCCc3cc(OC)c(OC)cc32)cc1 (stereo not given) is greater than or equal to 50 µM.
Found: T

Lookup: Answer whether TGI of `C=C(CN(C)C)C(=O)c1cc(C)ccc1C` is greater than or equal to 50 µM.
Found: T

Lookup: Answer whether TGI of Nc1ccc(C(=O)NN2C(=O)C(Cl)C2c2ccc([N+](=O)[O-])cc2)cc1 (stereo not given) is greater than or equal to 50 µM.
Found: T

Lookup: Answer whether TGI of CC(=O)OC1(C#N)CC2OC1C1C2N1C(=O)OC(C)(C)C (stereo not given) is greater than or equal to 50 µM.
Found: T

Lookup: Answer whether TGI of COC(=O)c1c(C)cc2c(c1O)C1(O)C(=O)c3cc4c(c(O)c3C(=O)C1(OC)C(O)C2)C(=O)C=C(NC1OC(C)C(OC)C(O)C1OC)C4=O (stereo not given) is greater than or equal to 50 µM.
Found: F

Lookup: Answer whether TGI of O=C(O)C(Cc1cnc[nH]1)N=Cc1nc(-c2ccccc2)oc1O (stereo not given) is greater than or equal to 50 µM.
Found: T

Lookup: Answer whether TGI of COC(=O)C1=COC2OC3/C(=C\c4ccc(O)c(OC)c4)C(=O)OC34C=CC1C24 (stereo not given) is greater than or equal to 50 µM.
Found: F

Lookup: Answer whether TGI of `Cc1cc(NS(=O)(=O)c2ccc(NC(=O)c3cccc4cc5ccccc5nc34)cc2)no1` is greater than or equal to 50 µM.
Found: T

---

Test system: RXF 393 renal
Assay: NCI tumour cell line growth inhibition, 48 h
Decide by TGI: equal to or exceeding 30 µM means TRUE, less means FALSE.

Lookup: Answer whether TGI of CC1C=CC(C)C2(O)C(=O)NC(O)C12 (centres undefined) is greater than or equal to 30 µM.
Found: TRUE

Lookup: Answer whether TGI of `Cc1cc(N(CCC#N)CCC#N)ccc1/C(N=Nc1ccccc1)=N\NC(=O)c1ccccc1` is greater than or equal to 30 µM.
Found: TRUE

Lookup: Answer whether TGI of `COc1ccc(Cn2cnc3cc(C(=O)Nc4cccc5ccccc45)ccc32)c(OC)c1` is greater than or equal to 30 µM.
Found: TRUE

Lookup: Answer whether TGI of `CCN(CC)c1nc(N(C)C)c2ccc(OC)cc2n1` is greater than or equal to 30 µM.
Found: TRUE

Lookup: Answer whether TGI of O=C(CC(O)c1ccncc1)c1ccccc1 (centres undefined) is greater than or equal to 30 µM.
Found: TRUE

Lookup: Answer whether TGI of `Cc1ccc(NSc2ccccc2[N+](=O)[O-])cc1` is greater than or equal to 30 µM.
Found: FALSE

Lookup: Answer whether TGI of `O=C1SC(c2ccccc2)(c2ccccc2)c2ccccc21` is greater than or equal to 30 µM.
Found: TRUE

Lookup: Answer whether TGI of `COc1ccc(C(=O)Cn2c(C(C)=O)nc3ccccc32)cc1` is greater than or equal to 30 µM.
Found: TRUE

Lookup: Answer whether TGI of O=C1C2C(C(=O)N1c1ccccc1)C1(c3ccccc3)OC2(c2ccccc2)c2ccccc21 (centres undefined) is greater than or equal to 30 µM.
Found: TRUE

Lookup: Answer whether TGI of N#CCC12CC=CCC1=C(O)C(=O)c1ccc(O)cc12 (centres undefined) is greater than or equal to 30 µM.
Found: TRUE

Lookup: Answer whether TGI of `N#Cc1c(NC(=O)c2cccc3ccccc23)sc2c1CCCC2` is greater than or equal to 30 µM.
Found: FALSE

Lookup: Answer whether TGI of `COc1ccc(-c2oc3cc(OC)c(OC)c(OC)c3c(=O)c2OC)cc1OC` is greater than or equal to 30 µM.
Found: TRUE

Lookup: Answer whether TGI of `C[N+](C)(C)Cc1c(CC#N)[nH]c2ccccc12` is greater than or equal to 30 µM.
Found: TRUE

Lookup: Answer whether TGI of `O=C1/C(=C/c2ccc(Cl)cc2)CN(Cc2cn(CCNc3ccnc4cc(Cl)ccc34)nn2)C/C1=C\c1ccc(Cl)cc1` is greater than or equal to 30 µM.
Found: FALSE

Lookup: Answer whether TGI of `COc1cc2c3c(n(CCCCNC(=O)OCC4c5ccccc5-c5ccccc54)c(=O)c2cc1OC)-c1cc2c(cc1C3=O)OCO2` is greater than or equal to 30 µM.
Found: TRUE

Lookup: Answer whether TGI of `Cc1ccc(-c2nc3c(C(=O)NCCN(C)C)cccc3[nH]2)cc1` is greater than or equal to 30 µM.
Found: FALSE

Lookup: Answer whether TGI of `CCN(CC)CCC(=O)c1ccccc1` is greater than or equal to 30 µM.
Found: TRUE

Lookup: Answer whether TGI of `COc1cc(C(=O)/C=C/c2c(-c3ccc(F)cc3)nc3ncccn23)cc(OC)c1OC` is greater than or equal to 30 µM.
Found: FALSE

Lookup: Answer whether TGI of `O=C(Nc1cccnc1)c1cccc([N+](=O)[O-])c1` is greater than or equal to 30 µM.
Found: TRUE

Lookup: Answer whether TGI of `COc1ccc(N(C)c2nc(Cl)nc3ccn(C)c23)cc1` is greater than or equal to 30 µM.
Found: TRUE

Lookup: Answer whether TGI of `COc1ccc(/C=C(\C(=O)OCC(C)C)c2ccc(OC)c(OC)c2)cc1OC` is greater than or equal to 30 µM.
Found: TRUE

Lookup: Answer whether TGI of O=C(O)C(Cc1cnc[nH]1)N=Cc1nc(-c2ccccc2)oc1O (centres undefined) is greater than or equal to 30 µM.
Found: TRUE

Lookup: Answer whether TGI of `CNC(=O)c1n[nH]n(Cc2ccccc2)c1=S` is greater than or equal to 30 µM.
Found: TRUE

Lookup: Answer whether TGI of `COc1ccc(NC(=O)COC(=O)c2cccc3c(=O)c4ccccc4[nH]c23)cc1` is greater than or equal to 30 µM.
Found: TRUE

Lookup: Answer whether TGI of CC(C)c1ccc2c(c1)C=C1OC(=O)[C@]3(C)CCC[C@@]2(C)C13 (some centres undefined) is greater than or equal to 30 µM.
Found: TRUE

Lookup: Answer whether TGI of `Cn1c(=O)c2nc3nnc(C#N)c(N)n3c2n(C)c1=O` is greater than or equal to 30 µM.
Found: TRUE

Lookup: Answer whether TGI of `CCSc1nc(N2CCCCC2)c2cn[nH]c2n1` is greater than or equal to 30 µM.
Found: TRUE

Lookup: Answer whether TGI of Oc1ccc2c3c1OC1C(=NN=C4CCC5(O)C6Cc7ccc(O)c8c7C5(CCN6CC5CC5)C4O8)CCC4(O)C(C2)N(CC2CC2)CCC314 (centres undefined) is greater than or equal to 30 µM.
Found: TRUE

Lookup: Answer whether TGI of `COc1cc(-n2cc(-c3ccc(F)cc3)[nH]c2=S)cc(OC)c1OC` is greater than or equal to 30 µM.
Found: TRUE

Lookup: Answer whether TGI of `N#CCCN(CCC#N)c1ccc(/C=N\c2nc(-c3ccccc3)cs2)cc1` is greater than or equal to 30 µM.
Found: TRUE

Lookup: Answer whether TGI of `COc1ccc(Cn2cc3c(c2-c2ccc(O)cc2)CCc2cnoc2-3)cc1` is greater than or equal to 30 µM.
Found: FALSE

Lookup: Answer whether TGI of `O=C(Nc1ccc(Cl)cc1)c1ccc([N+](=O)[O-])o1` is greater than or equal to 30 µM.
Found: FALSE

Lookup: Answer whether TGI of `O=c1[nH]cc(N(CCCl)CCCl)c(=O)[nH]1` is greater than or equal to 30 µM.
Found: TRUE

Lookup: Answer whether TGI of `Oc1ccc2ccccc2c1C(c1ccc(Cl)cc1)c1c(O)ccc2ccccc12` is greater than or equal to 30 µM.
Found: FALSE

Lookup: Answer whether TGI of `NC(N)=N/N=C(/c1ccccc1)c1ccc(Cl)cc1` is greater than or equal to 30 µM.
Found: TRUE

Lookup: Answer whether TGI of `OCCCCn1cc(Cn2ncc3c(SCc4ccccc4)ncnc32)nn1` is greater than or equal to 30 µM.
Found: TRUE

Lookup: Answer whether TGI of `COc1cc(C(=O)N2CCN(c3ccccc3OC)CC2)c(N)cc1OCc1ccccc1` is greater than or equal to 30 µM.
Found: TRUE

Lookup: Answer whether TGI of O=c1[nH]c(=O)n(C2CC(O)C(CO)O2)cc1C#Cc1cc(C(F)(F)F)cc(C(F)(F)F)c1 (centres undefined) is greater than or equal to 30 µM.
Found: TRUE

Lookup: Answer whether TGI of `N#Cc1c(-c2ccc(Cl)cc2)c(-c2ccc(Cl)cc2)nn(CCOC(=O)CCC(=O)O)c1=O` is greater than or equal to 30 µM.
Found: FALSE

Lookup: Answer whether TGI of `COC(=O)c1oc2c(O)c(OC)c(Br)cc2c1C` is greater than or equal to 30 µM.
Found: TRUE
